Origin of the recorded values: patent EP4659811A1

# MEASURED TARGET: VP1 capsid protein on BKV pseudovirions of genotype II (GBR-12; AB263920) (BK virus genotype II (GBR-12))
# TEST DESCRIPTION: cell-based or functional assay
PROPERTY NAME: Neutralization PSV IC50

Prompt: In one line, give reported Neutralization PSV IC50 of the entry antibody E2P6 (antibody, V domains shown) VH: EVQLVESGGGLIQPGGSLRLSCAASGFTVSTNCMSWVRQAPGTGLEWVSVIYSGGTTYYADSVKGRFTISRDNSRNTLYLQMNGLRAEDTAVYYCARSVDTYDIYALDVWGQGTTVTVSS VL: DIQMTQSPSTLSASVGDRVTITCRASQSISRWLAWYQQKPGKAPKLLIYKASGLHSGAPSRFSGSGSGTEFTLTISGLQPDDFATYFCQQYNSYPWTFGQGTKVEIK .
Response: > 50 mg/L

Prompt: In one line, give reported Neutralization PSV IC50 of the entry antibody B10P5 (antibody, V domains shown) VH: EVQLVESGGGLVQPGGSLRLSCSASGFTFSTYTMNWVRQAPGKGLDWVSYISSRSTSIYYADSVKGRFTISRDNAKNSLYLHMTSLRAEDTAVYYCVRDRGYYGSNWFDSWGQGTLVTVSS VL: QSALTQPRSVSGSPGQSVTISCTGTSSDVGNYNYVSWYQQHPGKAPRLMISDVTKRPSGVPDRFSGSKSGNTASLTISGLQAEDEGDYYCCAYAGSYTLVFGGGTKLTVL .
Response: > 50 mg/L

Prompt: In one line, give reported Neutralization PSV IC50 of the entry antibody C10P8 (antibody, V domains shown) VH: QVQLQESGPGLVKPSQTLSLTCTVSGGSISSGRYYWSWIRQPAGKGLEWIGRVYFSGSTNYNPSLKNRVTLSVDTSKNQFSLKLSSVIAADTAVYYCARAVRDYGDSYSFDYWGQGTLVTVSS VL: QSALTQPASVSGSPGQSITISCTGSSSDIGGYNYVSWYQVHPGKAPHLKIYDVVNRPSGVSNRFPGSKSGNTASLTISGLLADDEAYYYCCSYSIRGTPVFGGGTKLTVL .
Response: > 12.5 mg/L
